target_or_system: human ether-à-go-go-related gene (hERG) potassium channel (human, UniProt Q12809)
Sequence (Q12809 whole entry, looked up): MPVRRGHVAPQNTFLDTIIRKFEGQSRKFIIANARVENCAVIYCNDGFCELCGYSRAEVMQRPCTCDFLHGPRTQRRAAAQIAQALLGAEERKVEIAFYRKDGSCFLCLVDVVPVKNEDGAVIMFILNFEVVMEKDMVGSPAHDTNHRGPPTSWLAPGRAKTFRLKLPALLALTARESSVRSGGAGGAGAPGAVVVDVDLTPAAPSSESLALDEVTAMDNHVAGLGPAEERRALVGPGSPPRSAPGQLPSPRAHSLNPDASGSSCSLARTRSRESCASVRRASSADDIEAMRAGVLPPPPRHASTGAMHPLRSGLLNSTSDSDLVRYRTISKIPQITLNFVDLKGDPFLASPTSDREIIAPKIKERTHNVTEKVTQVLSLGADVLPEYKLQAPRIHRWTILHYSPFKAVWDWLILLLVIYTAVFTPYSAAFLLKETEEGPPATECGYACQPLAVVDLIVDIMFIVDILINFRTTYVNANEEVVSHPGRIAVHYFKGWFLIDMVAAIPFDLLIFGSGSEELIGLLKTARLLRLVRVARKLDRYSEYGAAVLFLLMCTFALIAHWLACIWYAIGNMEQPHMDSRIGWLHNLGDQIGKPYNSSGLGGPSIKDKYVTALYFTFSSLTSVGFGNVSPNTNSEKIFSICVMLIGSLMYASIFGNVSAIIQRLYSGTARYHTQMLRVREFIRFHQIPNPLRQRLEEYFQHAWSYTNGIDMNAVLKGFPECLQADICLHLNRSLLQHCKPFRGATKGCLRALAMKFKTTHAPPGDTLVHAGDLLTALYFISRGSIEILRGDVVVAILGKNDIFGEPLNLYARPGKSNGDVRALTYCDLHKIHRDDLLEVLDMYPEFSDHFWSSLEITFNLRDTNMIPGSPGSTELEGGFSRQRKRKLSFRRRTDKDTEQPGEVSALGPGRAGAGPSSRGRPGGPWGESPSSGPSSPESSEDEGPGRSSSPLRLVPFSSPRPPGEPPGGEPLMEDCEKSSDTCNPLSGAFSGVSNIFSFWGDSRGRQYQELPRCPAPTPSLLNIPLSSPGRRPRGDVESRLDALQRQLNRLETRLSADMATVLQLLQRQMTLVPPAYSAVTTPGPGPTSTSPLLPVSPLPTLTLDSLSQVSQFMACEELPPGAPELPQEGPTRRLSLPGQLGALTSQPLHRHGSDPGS
test_description: primary screen, population patch clamp on CHO cells stably expressing hERG; higher = less effect of the substance
In all, about 310,000 compounds went through this assay and about 2,200 (0.71%) showed an effect of 50% or more. The effect is printed as a negative number. This excerpt belongs to a sample that is enriched for strong results.
measurement_name: hERG current change (%, negative = inhibition) at 1uM (%)
A number alone suffices; assume %.

Completed entries (count: 9):
{"compound": "CCCc1ccc(-c2cc(C(=O)NCCc3ccc(S(N)(=O)=O)cc3)c3ccccc3n2)cc1", "measured_value": 16.3}
{"compound": "CCN1C(=O)N(CC)C2NC(=S)NC21 (stereo not shown)", "measured_value": 7.44}
{"compound": "Cc1ccc(NC(=O)/C=C/c2ccc([N+](=O)[O-])s2)cc1", "measured_value": 13.2}
{"compound": "COc1cc2c(cc1OC)CN(CCC(C)c1ccc(Cl)cc1)CC2.O=C(O)/C=C\\C(=O)O (stereo not shown)", "measured_value": -50.5}
{"compound": "COc1ccc(S(=O)(=O)N2CCN(C)CC2)c2ccccc12", "measured_value": 9.59}
{"compound": "COc1ccc(S(=O)(=O)N(C)CC(=O)N2CCOCC2)cc1", "measured_value": -2.22}
{"compound": "O=C1CCC([N+](=O)[O-])C(c2cc(Br)ccc2F)N1 (stereo not shown)", "measured_value": 14.5}
{"compound": "CCOC(=O)N1CCN(C(C)C(=O)c2c[nH]c3ccccc23)CC1 (stereo not shown)", "measured_value": -0.111}
{"compound": "CCOc1ccc(CNC(=O)C2CCCN(c3nnc(C)c4c(C)n(-c5ccccc5)nc34)C2)cc1 (stereo not shown)", "measured_value": 8.87}

Output measured hERG current change (%, negative = inhibition) at 1uM for this item: COc1cc2c(cc1OC)C(C)N(CCc1ccc(Cl)cc1)CC2.O=C(O)/C=C\C(=O)O (stereo not shown) -39.9

Origin of the recorded values: paper PMC4336329
